test-system: AcePrx-1 (peroxiredoxin-1) (Ancylostoma ceylanicum)
parameter: IC50
Give the figure together with its unit, number first.

Request the reported IC50 associated with [O-][n+]1c(CBr)c(CBr)[n+]([O-])c2ccccc21 [conoidin A] 374 µM
